tested on: TK6 human lymphoblastoid cell line; experiment: GreenScreen HC cytotoxicity (propidium iodide uptake); type: cell-based; conditions: 48 h, presence of S9 fraction
Mark each entry Yes if its Cytotoxicity, LEC, 48 h, +S9 sits below 20 µM, and No for all others.

Q. Quick check: Cytotoxicity, LEC, 48 h, +S9 of C[C@]1(O)CC[C@@H](NS(=O)(=O)c2ccc(-c3ncc(F)cc3F)cc2)CC1 under 20 µM?
A. Yes

Q. Quick check: Cytotoxicity, LEC, 48 h, +S9 of C[C@]1(O)CC[C@H](NS(=O)(=O)c2ccc(-c3ccc(Cl)cc3C#N)cc2)CC1 under 20 µM?
A. No

Q. Quick check: Cytotoxicity, LEC, 48 h, +S9 of C[C@]1(O)CC[C@H](NS(=O)(=O)c2ccc(-c3ccc(F)cc3F)cc2)CC1 [ABD900, reference compound] under 20 µM?
A. No

Q. Quick check: Cytotoxicity, LEC, 48 h, +S9 of C[C@]1(O)CC[C@@H](NS(=O)(=O)c2ccc(-c3ncc(F)cc3F)c(F)c2)CC1 under 20 µM?
A. Yes

Q. Quick check: Cytotoxicity, LEC, 48 h, +S9 of C[C@]1(O)CC[C@H](NS(=O)(=O)c2ccc(-c3ncc(Cl)cc3Cl)cc2)CC1 under 20 µM?
A. No

Q. Quick check: Cytotoxicity, LEC, 48 h, +S9 of C[C@]1(O)CC[C@@H](NS(=O)(=O)c2ccc(-c3ccc(Cl)cc3C#N)cc2)CC1 under 20 µM?
A. Yes

Q. Quick check: Cytotoxicity, LEC, 48 h, +S9 of C[C@]1(O)CC[C@H](NS(=O)(=O)c2ccc(-c3c(F)cc(F)cc3F)cc2)CC1 under 20 µM?
A. Yes

Q. Quick check: Cytotoxicity, LEC, 48 h, +S9 of C[C@]1(O)CC[C@H](NS(=O)(=O)c2ccc(-c3ncc(Cl)cc3Cl)c(F)c2)CC1 under 20 µM?
A. No

====

experiment: Rodent pharmacokinetics study; format: in vivo, Sprague-Dawley rats; conditions: male, Sprague-Dawley, plasma; rat, elimination phase half-life
QUANTITY: half-life (min)
// note: answer is a bare numeric in min

Q. I would be grateful if you could share the reported half-life for C[C@]1(O)CC[C@@H](NS(=O)(=O)c2ccc(-c3ccc(F)cc3F)cc2)CC1 [ABD899, reference compound] .
A. 648

Q. I would be grateful if you could share the reported half-life for C[C@]1(O)CC[C@@H](NS(=O)(=O)c2ccc(-c3ncc(F)cc3F)cc2)CC1 [HMC-N-02-B] .
A. 360

Q. I would be grateful if you could share the reported half-life for C[C@]1(O)CC[C@H](NS(=O)(=O)c2ccc(-c3ncc(F)cc3F)cc2)CC1 [HMC-N-02-A] .
A. 378

Q. I would be grateful if you could share the reported half-life for O=S(=O)(N[C@H]1CC[C@H](O)CC1)c1ccc(-c2ncc(Cl)cc2Cl)cc1 [ABD836, reference compound] .
A. 318

Q. I would be grateful if you could share the reported half-life for C[C@]1(O)CC[C@H](NS(=O)(=O)c2ccc(-c3ncc(Cl)cc3Cl)cc2)CC1 [HMC-N-03-A] .
A. 186

Q. I would be grateful if you could share the reported half-life for C[C@]1(O)CC[C@H](NS(=O)(=O)c2ccc(-c3c(F)cc(F)cc3F)cc2)CC1 [HMC-C-03-A] .
A. 144

Q. I would be grateful if you could share the reported half-life for C[C@]1(O)CC[C@H](NS(=O)(=O)c2ccc(-c3ccc(Cl)cc3C#N)cc2)CC1 [HMC-C-01-A] .
A. 372

Q. I would be grateful if you could share the reported half-life for C[C@]1(O)CC[C@@H](NS(=O)(=O)c2ccc(-c3ncc(Cl)cc3Cl)cc2)CC1 [HMC-N-03-B] .
A. 444

Hello, the source for this data is patent US9624167B2, in case you need it.
